- Tested on: Pseudomonas aeruginosa
- experiment_summary: Inhibition of LspA in Pseudomonas aeruginosa assessed as inhibition of bacterial growth
Starred links: 1 amine or outer side, 2 acyl side, 3 side chain; linkers in the order of their positions; H or OH if unused. Non-standard residues stand in square brackets, D forms with d. Residues, ends and D or L forms follow the SMILES beside them. *: point of attachment. X6 = C[C@H](CO[C@H](CC1C[C@H]2CC[C@@H](C1)C2)[C@@H](C)C(=O)[*:2])N[*:1]; X1 = CCCCCC[C@@H](OC[C@@H](C)N[*:1])[C@@H](C)C(=O)[*:2]; Cyclobutyl(trans-3-NH2) = N[C@H]1C[C@H](*)C1; X4 = CCCCCCN(CCN[*:1])[C@@H](C)C(=O)[*:2]; Gly(cHept) = N[C@H](C(=O)O)C1CCCCCC1; NMeL = CN[C@@H](CC(C)C)C(=O)O; Chg = N[C@H](C(=O)O)C1CCCCC1; NMeNva = CCC[C@H](NC)C(=O)O; X2 = NC[C@H]1C[C@H](*)C1; Dap = NC[C@H](N)C(=O)O
Listed below: MIC values for each entry.

Reference set, count: 3
compound	result
CCCCCCN1CCNC(=O)[C@H](CO[C@H]2C[C@H](N)C2)NC(=O)[C@H](CN)NC(=O)[C@H](C2CCCCC2)NC(=O)[C@H](CC(C)C)N(C)C(=O)[C@@H]1C (cyclo([Chg][Dap]S(Cyclobutyl(trans-3-NH2))[X4][NMeL]))	> 100 µM
CCCCCC[C@H]1OC[C@@H](C)NC(=O)[C@H](CO[C@H]2C[C@H](CN)C2)NC(=O)[C@H](CN)NC(=O)[C@H](C2CCCCCC2)NC(=O)[C@H](CCC)N(C)C(=O)[C@@H]1C (cyclo([Dap]S(X2)[X1][NMeNva][Gly(cHept)]))	100 µM
CCCCCC[C@H]1OC(=O)CNC(=O)[C@H]([C@H](C)O)NC(=O)[C@H](CO)NC(=O)[C@H]([C@H](C)CC)NC(=O)[C@H](CC(C)C)N(C)C(=O)[C@@H]1C	> 100 µM

For the compound CCC[C@H]1C(=O)N[C@@H](C2CCCCCC2)C(=O)N[C@@H](CN)C(=O)N[C@@H](CO[C@H]2C[C@H](N)C2)C(=O)N[C@H](C)CO[C@H](CC2C[C@H]3CC[C@@H](C2)C3)[C@@H](C)C(=O)N1C (stereo partly drawn) (cyclo([Dap]S(Cyclobutyl(trans-3-NH2))[X6][NMeNva][Gly(cHept)])) , give its reported MIC. 100 µM
